Data origin: patent US8952024B2

# Test system: barnyardgrass (Echinochloa crus-galli)
# Method notes: Test B flooded paddy test
# Assay type: in vivo
# Experimental setup: Flood (flooded paddy test), 125 g ai/ha; scale 0 to 100, 0 is no effect, 100 is complete control; 13 to 15 days
Answer each item with its documented Plant response rating, Barnyardgrass.
// response body must contain only the number

Data request: Consider the compound CCc1ccc(-n2c(-c3ccccc3)ncc(C(=O)C3=C(O)CCCC3=O)c2=O)cc1 and give its recorded Plant response rating, Barnyardgrass.
Data returned: 20

Data request: Consider the compound CCn1c(Cc2ccccc2)ncc(C(=O)C2=C(O)CCCC2=O)c1=O and give its recorded Plant response rating, Barnyardgrass.
Data returned: 23

Data request: Consider the compound Cc1cc(C)cc(-n2c(-c3ccccc3)ncc(C(=O)C3=C(O)CCCC3=O)c2=O)c1 and give its recorded Plant response rating, Barnyardgrass.
Data returned: 30

Data request: Consider the compound COCCn1c(-c2ccsc2)ncc(C(=O)C2=C(O)C3CCC(C3)C2=O)c1=O (stereo not drawn) and give its recorded Plant response rating, Barnyardgrass.
Data returned: 75

Data request: Consider the compound CCCn1c(-c2cccc(C(F)(F)F)c2)ncc(C(=O)C2=C(O)CCCC2=O)c1=O and give its recorded Plant response rating, Barnyardgrass.
Data returned: 20

Data request: Consider the compound O=C1CCCC(O)=C1C(=O)c1cnc(-c2ccccc2)n(CC2CCCO2)c1=O (stereo not drawn) and give its recorded Plant response rating, Barnyardgrass.
Data returned: 20

Data request: Consider the compound CCCc1ncc(C(=O)C2=C(O)CCCC2=O)c(=O)n1Cc1ccc(OC)c(OC)c1 and give its recorded Plant response rating, Barnyardgrass.
Data returned: 0

Data request: Consider the compound Cc1cc(F)ccc1-n1c(-c2cccc(Br)c2)ncc(C(=O)C2=C(O)CCCC2=O)c1=O and give its recorded Plant response rating, Barnyardgrass.
Data returned: 20

Data request: Consider the compound O=C1CCCC(OC(=O)C2CC2)=C1C(=O)c1cnc(-c2ccccc2)n(-c2ccccc2)c1=O and give its recorded Plant response rating, Barnyardgrass.
Data returned: 40

Data request: Consider the compound Cc1ccc(-n2c(-c3ccccc3)ncc(C(=O)C3=C(O)CCCC3=O)c2=O)cc1 and give its recorded Plant response rating, Barnyardgrass.
Data returned: 20

Data request: Consider the compound CCc1ccc(-n2c(-c3cccc(Cl)c3)ncc(C(=O)C3=C(O)CCCC3=O)c2=O)cc1 and give its recorded Plant response rating, Barnyardgrass.
Data returned: 0

Data request: Consider the compound O=C1CCCC(O)=C1C(=O)c1cnc(-c2cccc(C(F)(F)F)c2)n(C2CCCCC2)c1=O and give its recorded Plant response rating, Barnyardgrass.
Data returned: 0

Data request: Consider the compound O=C(C1=C(O)C2CCC(C2)C1=O)c1cnc(-c2cc(F)c(F)c(F)c2)n(C2CCCCC2)c1=O (stereo not drawn) and give its recorded Plant response rating, Barnyardgrass.
Data returned: 0

Data request: Consider the compound O=C1CCCC(O)=C1C(=O)c1cnc(-c2ccccc2Cl)n(-c2ccccc2)c1=O and give its recorded Plant response rating, Barnyardgrass.
Data returned: 0

Data request: Consider the compound CCCCn1c(-c2ccccc2)ncc(C(=O)C2=C(O)CCCC2=O)c1=O and give its recorded Plant response rating, Barnyardgrass.
Data returned: 50
